- study-target: Sodium-dependent serotonin transporter (Rattus norvegicus)
- Sequence (P31652 whole entry): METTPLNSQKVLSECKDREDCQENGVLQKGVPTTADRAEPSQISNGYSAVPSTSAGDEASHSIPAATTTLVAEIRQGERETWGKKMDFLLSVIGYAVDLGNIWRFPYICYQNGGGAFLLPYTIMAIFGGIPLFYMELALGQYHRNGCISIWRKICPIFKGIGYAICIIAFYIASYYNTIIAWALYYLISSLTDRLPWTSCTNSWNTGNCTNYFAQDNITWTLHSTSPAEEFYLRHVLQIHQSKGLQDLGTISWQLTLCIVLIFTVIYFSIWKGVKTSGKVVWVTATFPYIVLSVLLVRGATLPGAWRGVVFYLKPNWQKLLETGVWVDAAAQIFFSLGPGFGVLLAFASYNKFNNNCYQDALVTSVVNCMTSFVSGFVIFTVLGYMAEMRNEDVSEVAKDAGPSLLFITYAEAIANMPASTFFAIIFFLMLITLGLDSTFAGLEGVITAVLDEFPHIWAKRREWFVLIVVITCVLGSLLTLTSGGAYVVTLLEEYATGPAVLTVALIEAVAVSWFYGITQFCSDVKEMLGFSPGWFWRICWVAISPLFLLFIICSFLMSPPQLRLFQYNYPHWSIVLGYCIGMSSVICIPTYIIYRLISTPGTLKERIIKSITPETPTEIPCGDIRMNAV
- test-details: Displacement of [3H]paroxetine from rat cortical 5HTT reuptake site at 100 nM
Catalogue of inhibition readings, one per entry.
Write the value in % as a bare number.

* C1=Nc2cccc(N3CCN([C@H]4CC[C@@H](c5c[nH]c6ncccc65)CC4)CC3)c2C1 | 0
* C1=Nc2cccc(N3CCN([C@H]4CC[C@H](c5c[nH]c6ncccc65)CC4)CC3)c2C1 | 18
* Fc1cccc2[nH]cc([C@H]3CC[C@@H](N4CCN(c5cccc6[nH]ccc56)CC4)CC3)c12 | 27
* Cc1[nH]c2ccccc2c1[C@H]1CC[C@H](N2CCN(c3cccc4[nH]ccc34)CC2)CC1 | 12

Request: What does the record list as inhibition for Cc1[nH]c2ccccc2c1[C@H]1CC[C@@H](N2CCN(c3cccc4[nH]ccc34)CC2)CC1 ?
Result: 4

###

The following molecules have recorded Ki on Sodium-dependent serotonin transporter (Rattus norvegicus).
Write the value in µM as a bare number.

Known results for molecules:
* N#Cc1ccc2[nH]cc([C@H]3CC[C@H](N4CCN(c5cccc6ncccc56)CC4)CC3)c2c1 | 0.0049
* Cn1cc([C@H]2CC[C@H](N3CCN(c4cccc5[nH]ccc45)CC3)CC2)c2cc(F)ccc21 | 0.0675
* N#Cc1ccc2[nH]cc([C@H]3CC[C@H](N4CCN(c5cccc6nccnc56)CC4)CC3)c2c1 | 0.0136
* N#Cc1ccc2[nH]cc([C@H]3CC[C@H](N4CCN(c5cccc6cccnc56)CC4)CC3)c2c1 | 0.02
* c1cc(N2CCN([C@H]3CC[C@@H](c4c[nH]c5ccccc54)CC3)CC2)c2nc[nH]c2c1 | 0.013
* N#Cc1ccc2[nH]cc([C@H]3CC[C@H](N4CCN(c5cccc6[nH]ccc56)CC4)CC3)c2c1 | 0.0085

Kindly consider the entry below.
Request: What does the record list as Ki for Cn1cc([C@H]2CC[C@@H](N3CCN(c4cccc5[nH]ccc45)CC3)CC2)c2cc(F)ccc21 ?
Result: 0.0116

###

- study-target: 5-hydroxytryptamine receptor 1A (Homo sapiens)
- test-details: Intrinsic activity at human 5HT1A receptor expressed in CHO cells by GTPgammaS binding assay relative to serotonin
- Assay type: functional, cell-based
Emax below 10% gives not met; Emax at or above it gives met.

Some entries whose results are on file:
* Fc1ccc2[nH]cc([C@H]3CC[C@@H](N4CCN(c5cccc6cccnc56)CC4)CC3)c2c1 | met
* Fc1ccc2[nH]cc([C@H]3CC[C@H](N4CCN(c5cccc6ccccc56)CC4)CC3)c2c1 | met
* Cc1nc2c(N3CCN([C@H]4CC[C@H](c5c[nH]c6ccccc65)CC4)CC3)cccc2[nH]1 | not met
* N#Cc1ccc2[nH]cc([C@H]3CC[C@@H](N4CCN(c5cccc6cccnc56)CC4)CC3)c2c1 | met
* N#Cc1ccc2[nH]cc([C@H]3CC[C@@H](N4CCN(c5cccc6[nH]ccc56)CC4)CC3)c2c1 | not met

Request: Decide: Emax of N#Cc1ccc2[nH]cc([C@H]3CC[C@H](N4CCN(c5cccc6nccnc56)CC4)CC3)c2c1 >= 10%?
Result: met

Request: Same for Fc1ccc2[nH]cc([C@H]3CC[C@H](N4CCN(c5cccc6ncccc56)CC4)CC3)c2c1
Result: not met

Request: Same for c1cc(N2CCN([C@H]3CC[C@H](c4c[nH]c5ccccc54)CC3)CC2)c2nc[nH]c2c1
Result: not met
